B1: mRNA-splicing (parent)
chain: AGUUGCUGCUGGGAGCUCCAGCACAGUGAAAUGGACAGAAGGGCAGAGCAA

variants of: B1; assay: exon inclusion enrichment index; higher = more inclusion; WT1 exon 5 minigene, HEK293
So basically: exon inclusion enrichment index at 0.3 or higher? That is y. Lower than 0.3? That is n.

G5A C6G U7G C9A A39U    n
G5U G8U C9U C19A A20G    n
G5A C6U U7A G8U C9A C36G    n

Query :: // inclusive: exon inclusion enrichment index at least 0.3? input: G5C C6G U7C U10C A14C G15C
Result :: y

Query :: Item G5A C6U U7A G8U C9A G11A G12A with exon inclusion enrichment index of 0.3 or above?
Result :: n

Query :: Item C6A U7C C9A U10C G41U with exon inclusion enrichment index of 0.3 or above?
Result :: y

Query :: Could you tell me if the measured exon inclusion enrichment index of G5C C6A U7A G8A U10A reaches 0.3 or more?
Result :: n

Query :: Textbook exercise: given the entry G5A U7A C9A U10A , state whether its exon inclusion enrichment index is greater than or equal to 0.3.
Result :: y

Query :: Dear colleague, could you confirm whether G5C C6G U7C U10C A20U G21U has exon inclusion enrichment index at or above 0.3?
Result :: y

Query :: Is exon inclusion enrichment index for G5A C6U U7A G8U C9A C24U at or above 0.3?
Result :: n

Query :: Is the recorded value of exon inclusion enrichment index equal to or greater than 0.3 for this variant? G5C C6A U7C G8A U10A G41C G42C
Result :: y

Query :: Evaluate G5U G8U C9U G42A G43A : exon inclusion enrichment index at minimum 0.3?
Result :: y

Query :: API: above_or_equal(metric=exon inclusion enrichment index, cutoff=0.3) for item G5U G8U C9U G15U
Result :: n

Query :: Would you say G5C C6A U7C G8A U10A G48U shows exon inclusion enrichment index at minimum 0.3?
Result :: n
